target-desc: full-length beta-Catenin (Uniprot ID P35222) (Homo sapiens, UniProt P35222)
Construct: 10 nM full-length beta-Catenin (Uniprot ID P35222)
Sequence (P35222 whole entry): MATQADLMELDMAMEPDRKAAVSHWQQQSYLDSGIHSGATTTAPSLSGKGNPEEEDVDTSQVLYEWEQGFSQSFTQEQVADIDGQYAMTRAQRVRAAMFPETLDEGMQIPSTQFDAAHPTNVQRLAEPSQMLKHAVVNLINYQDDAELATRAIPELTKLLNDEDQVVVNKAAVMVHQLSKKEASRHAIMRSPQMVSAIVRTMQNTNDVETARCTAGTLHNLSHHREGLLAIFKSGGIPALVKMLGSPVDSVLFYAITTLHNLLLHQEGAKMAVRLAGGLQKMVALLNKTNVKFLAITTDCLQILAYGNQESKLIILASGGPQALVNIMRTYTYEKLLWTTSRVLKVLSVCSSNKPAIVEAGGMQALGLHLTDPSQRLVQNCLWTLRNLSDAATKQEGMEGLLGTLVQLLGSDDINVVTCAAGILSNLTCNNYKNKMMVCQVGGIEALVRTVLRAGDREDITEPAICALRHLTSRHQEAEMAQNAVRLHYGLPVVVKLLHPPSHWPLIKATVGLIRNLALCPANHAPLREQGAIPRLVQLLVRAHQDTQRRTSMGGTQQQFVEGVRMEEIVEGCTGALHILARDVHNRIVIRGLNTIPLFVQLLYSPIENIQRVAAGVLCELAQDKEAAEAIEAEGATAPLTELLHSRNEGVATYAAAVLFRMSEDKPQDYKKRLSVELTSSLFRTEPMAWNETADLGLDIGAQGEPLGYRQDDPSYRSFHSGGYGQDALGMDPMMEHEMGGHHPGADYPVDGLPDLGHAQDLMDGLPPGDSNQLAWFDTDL
test-summary: Fluorescence polarization IC50 (beta-catenin / 5FAM-TCF4 10-53 competition)
Assay type: binding
recorded-conditions: read-out: FP EC50
reported-property: pIC50
# pIC50 is unitless: minus log10 of the molar concentration; print number only

# count of solved cases: 2
CC[C@@H]1NC(=O)[C@H](CC(=O)O)NC(=O)[C@]2(CC=CCCCC3(CCCC=CCCCCCC[C@@](C)(C(=O)N[C@@H](Cc4ccccc4)C(=O)N[C@@H](Cc4csc5ccccc45)C(=O)N[C@@H](CCC(N)=O)C(N)=O)NC(=O)[C@H](CC(N)=O)NC(=O)[C@H](Cc4ccccc4)NC(=O)[C@H](C)NC(=O)[C@H](C)NC(=O)[C@H](CCC(=O)O)NC(=O)[C@H](CC(=O)O)NC3=O)NC1=O)CCCN2C(C)=O (stereo partly drawn) [I-474] | 7.37
CC(=O)N1CCC[C@]12CC=CCCCC1(CCCC=CCCCCCC[C@@](C)(C(=O)N[C@@H](Cc3ccccc3)C(=O)N[C@@H](Cc3csc4ccccc34)C(N)=O)NC(=O)[C@H](CC(N)=O)NC(=O)[C@H](Cc3ccccc3)NC(=O)[C@H](C)NC(=O)[C@H](C)NC(=O)[C@H](CCC(=O)O)NC(=O)[C@H](CC(=O)O)NC1=O)NC(=O)[C@H](CC(C)(C)C)NC(=O)[C@H](CC(=O)O)NC2=O (stereo partly drawn) [I-713] | 7.15

Lab note: next compound to report on.
Task: Please report the recorded pIC50 for CC(=O)N1CCC[C@]12CC=CCCCC1(CCCC=CCCCCCC[C@@](C)(C(=O)N[C@@H](Cc3ccsc3)C(=O)N[C@@H](Cc3csc4ccccc34)C(=O)N[C@@H](CCC(N)=O)C(N)=O)NC(=O)[C@H](CC(N)=O)NC(=O)[C@H](Cc3ccccc3)NC(=O)[C@H](C)NC(=O)[C@H](C)NC(=O)[C@H](CC(=O)O)NC(=O)[C@H](CC(=O)O)NC1=O)NC(=O)[C@H](CC(C)(C)C)NC(=O)[C@H](CC(=O)O)NC2=O (stereo partly drawn) [I-678] .
Result: 7.59
